I'd be grateful if you could share measured pIC50 for these entries.
- Tested on: KB-V1
- protocol.details: cells
- Format: functional, cell-based
- assay.conditions: Homo sapiens, KB-V1, 72 h
- Description: Cytotoxicity against multidrug resistant human KB-V1 cells assessed as inhibition of cell growth after 72 hrs by MTT assay
# reply with the number alone; pIC50 is -log10 of concentration in mol/L

Q: Indicate the recorded pIC50 value for this compound: C=CC(=O)N1CCc2c(sc3nc(-c4cc(Br)c(OC)c(OC)c4)[nH]c(=O)c23)C1
Ans: 5.72

Q: Using known records, supply pIC50 for COc1cc(-c2nc3sc4c(c3c(=O)[nH]2)CCNC4)cc(Cl)c1OC
Ans: 4.77

Q: Read off the recorded pIC50 for C=CC(=O)N1CCc2c(sc3nc(-c4cc(I)c(OC)c(OC)c4)[nH]c(=O)c23)C1
Ans: 5.92

Q: Hello, please tell me recorded pIC50 for this one: CCOC(=O)N1CCc2c(sc3nc(-c4ccc(OC)c(O)c4)[nH]c(=O)c23)C1
Ans: 5.66

Q: # return recorded pIC50 for entry COc1cc(-c2nc3sc4c(c3c(=O)[nH]2)CCNC4)cc(I)c1OC
Ans: 5.60

Q: Please give measured pIC50 of the following entry: COc1c(Br)cc(-c2nc3sc4c(c3c(=O)[nH]2)CCNC4)cc1Br
Ans: 5.21

Q: For the compound N#Cc1cccc(-c2nc3sc4c(c3c(=O)[nH]2)CCCC4)c1 , give its measured pIC50 value.
Ans: 5.72

Q: Please look at this compound and report its pIC50: CCOC(=O)N1CCc2c(sc3nc(-c4cccnc4)[nH]c(=O)c23)C1
Ans: 4.45

Q: Given the compound O=c1[nH]c(-c2cc(F)cc(F)c2)nc2sc3c(c12)CCNC3 , write its reported pIC50.
Ans: 5.19

Q: Please give the documented pIC50 of N#Cc1cccc(-c2nc3sc4c(c3c(=O)[nH]2)CCCCC4)c1
Ans: 4.74

Q: Specify pIC50 for COc1cc(-c2nc3sc4c(c3c(=O)[nH]2)CCCCC4)cc(Br)c1OC and stop.
Ans: 6.52

Q: Hello, please tell me recorded pIC50 for this one: COc1ccc(-c2nc3sc4c(c3c(=O)[nH]2)CCNC4)cc1
Ans: 5.17

Q: Determine its reported pIC50: COc1cc(-c2nc3sc4c(c3c(=O)[nH]2)CCN(C(C)=O)C4)cc(Br)c1OC
Ans: 5.55

Q: Give me measured pIC50, please, for this compound: O=c1[nH]c(-c2cccc(Br)c2)nc2sc3c(c12)CCNC3
Ans: 5.66

Q: Determine its reported pIC50: COc1cc(-c2nc3sc4c(c3c(=O)[nH]2)CCN(C(C)=O)C4)cc(I)c1OC
Ans: 6.22

Q: Specify measured pIC50 for COc1ccc(/C=C\c2cc(OC)c(OC)c(OC)c2)cc1O [COMBRETASTATIN A4] .
Ans: 8.40

Q: Return the recorded pIC50 value; entry: CCOC(=O)N1CCc2c(sc3nc(-c4cc(I)c(OC)c(OC)c4)[nH]c(=O)c23)C1
Ans: 7.00

Q: Give pIC50 for CCOC(=O)N1CCc2c(sc3nc(-c4cc(Br)c(OC)c(OC)c4)[nH]c(=O)c23)C1
Ans: 6.52

Q: # return recorded pIC50 for entry CCOC(=O)N1CCc2c(sc3nc(-c4cccc(C#N)c4)[nH]c(=O)c23)C1
Ans: 5.15

Q: Identify measured pIC50 associated with COc1cc(-c2nc3sc4c(c3c(=O)[nH]2)CCNC4)cc(Br)c1OC
Ans: 5.70

Q: Input COc1cc(-c2nc3sc4c(c3c(=O)[nH]2)CCCCC4)cc(Cl)c1OC , output reported pIC50.
Ans: 6.15

Q: Item COc1c(Br)cc(-c2nc3sc4c(c3c(=O)[nH]2)CCCCC4)cc1Br : provide pIC50
Ans: 5.85

Q: For the compound COc1cc(-c2nc3sc4c(c3c(=O)[nH]2)CCCC4)cc(Br)c1OC , give its measured pIC50 value.
Ans: 6.52

Q: Look up pIC50 of COc1cc(-c2nc3sc4c(c3c(=O)[nH]2)CCCC4)cc(Cl)c1OC and report it.
Ans: 6.52

Q: Supply pIC50 value. Item: COc1c(Br)cc(-c2nc3sc4c(c3c(=O)[nH]2)CCCC4)cc1Br
Ans: 6.15

Q: Input COc1cc(-c2nc3sc4c(c3c(=O)[nH]2)CCCC4)cc(I)c1OC , output reported pIC50.
Ans: 7.00

Q: Specify measured pIC50 for CCOC(=O)N1CCc2c(sc3nc(-c4cc(OC)c(OC)c(OC)c4)[nH]c(=O)c23)C1 .
Ans: 6.10

Q: Please supply the value of reported pIC50 for the item COc1cc(-c2nc3sc4c(c3c(=O)[nH]2)CCCCC4)cc(I)c1OC
Ans: 6.22

Q: Give reported pIC50 value for CCOC(=O)N1CCc2c(sc3nc(-c4cc(F)cc(F)c4)[nH]c(=O)c23)C1
Ans: 5.28

Q: Determine from records and report pIC50 for COc1cc(-c2nc(O)c3c4c(sc3n2)CCCC4)cc(OC)c1OC
Ans: 6.70

----------
- System: EA.hy 926
- protocol.details: Induction of F-actin cytoskeleton disruption in human EA.hy926 cells at 50 nM assessed as formation of actin stress fibers measured after 3 hrs by DAPI staining based fluorescence microscopic analysis
- Format: cell-based
Active and inactive are the calls of the source. No cut-off for these calls is given here.
Please reply with one of these outcomes: label 1 (active), label 0 (inactive)

Q: Hello, I am checking results. What call was entered for COc1cc(-c2nc3sc4c(c3c(=O)[nH]2)CCCC4)cc(I)c1OC ?
Ans: label 1

Q: Could you check what this test reported for COc1ccc(/C=C\c2cc(OC)c(OC)c(OC)c2)cc1O ?
Ans: label 1

Q: Can you look up the reported call for CCOC(=O)N1CCc2c(sc3nc(-c4cc(I)c(OC)c(OC)c4)[nH]c(=O)c23)C1 for me?
Ans: label 1

Q: Lab log entry: COc1cc(-c2nc(O)c3c4c(sc3n2)CCCC4)cc(OC)c1OC — outcome as called in the assay?
Ans: label 0

----------
- system.tested: Tubulin (Homo sapiens) (UniProt P68371+Q9H4B7+P0DPH7+P68366+Q13509+Q71U36+P04350+Q3ZCM7+P07437+P68363+Q9BQE3+Q6PEY2+Q13885+Q9BVA1+Q9BUF5)
- protocol.details: Induction of microtubule cytoskeleton disruption in human EA.hy926 cells at 25 nM measured after 24 hrs by DAPI staining based fluorescence microscopic analysis
- Type: cell-based
- assay.conditions: EA.hy 926
Active and inactive are the calls of the source. The calls are words filed in the database; no cut-off is given here.

[
  {
    "smiles.notation": "COc1cc(-c2nc(O)c3c4c(sc3n2)CCCC4)cc(OC)c1OC",
    "Activity": "inactive"
  },
  {
    "smiles.notation": "COc1cc(-c2nc3sc4c(c3c(=O)[nH]2)CCCC4)cc(I)c1OC",
    "Activity": "inactive"
  },
  {
    "smiles.notation": "CCOC(=O)N1CCc2c(sc3nc(-c4cc(I)c(OC)c(OC)c4)[nH]c(=O)c23)C1",
    "Activity": "inactive"
  }
]

----------
What IC50 was measured for each of the following?
- Test system: KB-V1
- protocol.details: cells
- Assay type: functional, cell-based
- assay.conditions: Homo sapiens, KB-V1, 72 h

Q: Indicate its recorded IC50; the molecule in question is O=c1[nH]c(-c2cc(F)cc(F)c2)nc2sc3c(c12)CCCCC3
Ans: > 100 µM

Q: // fetch IC50 given entry O=c1[nH]c(-c2cccc(Br)c2)nc2sc3c(c12)CCCCC3
Ans: > 100 µM

Q: Tell me its IC50 given COc1cc(-c2nc3sc4c(c3c(=O)[nH]2)CCNC4)cc(OC)c1OC as the entry.
Ans: > 100 µM
